Tested on: Fibroblast
Method: Multiplex assay against human fibroblast
Type: toxicity, cell-based
Condition label: 12 h, 10 µM, compound concentration 10 uM, replicate 2
Observable: Population Healthy Nuclei (%)
Number only, in %; omit the unit.

Check out these entries, answers already filled in.
Compound | Units | Population Healthy Nuclei (%)
CCCCC1=NC2(CCCC2)C(=O)N1Cc1ccc(-c2ccccc2-c2nnn[nH]2)cc1 | % | 48
Cl.N=C(N)NC(=O)Cc1c(Cl)cccc1Cl [GUANFACINE HYDROCHLORIDE] | % | 47

Let's switch to this compound now.
Return reported Population Healthy Nuclei (%); argument: `NCCc1cn(S(=O)(=O)c2c(Cl)nc3sccn23)c2ccccc12.O=C(O)C(=O)O`
44
